Experiment: Drug distribution in mouse plasma at 10 mg/kg, po incubated for 24 hrs by UPLC-MS/MS analysis
Assay type: ADME, organism-based
Reported values of concentration at 24 h for individual entries
recorded_metric: concentration at 24 h (ng/mL)

{"columns": ["smiles_entry", "recorded_number"],
 "data": [
  ["COC(=O)N[C@H](C(=O)N1CCC[C@H]1C(=O)Nc1ccc([C@@H]2CC[C@@H](c3ccc(NC(=O)[C@@H]4CCCN4C(=O)[C@@H](NC(=O)OC)[C@@H](C)OC)cc3)N2c2cc(F)c(N3CC[Si](C)(C)CC3)c(F)c2)cc1)[C@@H](C)OC", 58.6],
  ["COC(=O)N[C@H](C(=O)N1CCC[C@H]1c1nc2cc([C@@H]3CC[C@@H](c4cc5nc([C@@H]6CCCN6C(=O)[C@@H](NC(=O)OC)[C@@H](C)OC)[nH]c5cc4F)N3c3cc(F)c(N4CCC(c5ccc(F)cc5)CC4)c(F)c3)c(F)cc2[nH]1)[C@@H](C)OC", 718]
]}

---

Test: AUC (0 to infinity) in dog at 5 mg/kg, po by UPLC-MS/MS analysis
Assay type: ADME, organism-based, Canis lupus familiaris
Set-up: dose 5 mg/kg, route oral, time infinity
Settings: in vivo

{"columns": ["smiles_entry", "result_units", "AUC"],
 "data": [
  ["COC(=O)N[C@H](C(=O)N1CCC[C@H]1C(=O)Nc1ccc([C@@H]2CC[C@@H](c3ccc(NC(=O)[C@@H]4CCCN4C(=O)[C@@H](NC(=O)OC)[C@@H](C)OC)cc3)N2c2cc(F)c(N3CC[Si](C)(C)CC3)c(F)c2)cc1)[C@@H](C)OC", "ng·h/mL", 10100]
]}

---

Test: Cmax in dog at 5 mg/kg, po by UPLC-MS/MS analysis
Assay type: ADME, organism-based, Canis lupus familiaris
Design: dose 5 mg/kg, route oral
Settings: in vivo

{"columns": ["smiles_entry", "Cmax [ng/mL]"],
 "data": [
  ["COC(=O)N[C@H](C(=O)N1CCC[C@H]1C(=O)Nc1ccc([C@@H]2CC[C@@H](c3ccc(NC(=O)[C@@H]4CCCN4C(=O)[C@@H](NC(=O)OC)[C@@H](C)OC)cc3)N2c2cc(F)c(N3CC[Si](C)(C)CC3)c(F)c2)cc1)[C@@H](C)OC", 395]
]}

---

Experiment: Cmax in mouse at 10 mg/kg, po by UPLC-MS/MS analysis
Assay type: ADME, organism-based
Set-up: dose 10 mg/kg, route oral
Settings: in vivo
recorded_metric: Cmax (ng/mL)

{"columns": ["smiles_entry", "recorded_number"],
 "data": [
  ["COC(=O)N[C@H](C(=O)N1CCC[C@H]1C(=O)Nc1ccc([C@@H]2CC[C@@H](c3ccc(NC(=O)[C@@H]4CCCN4C(=O)[C@@H](NC(=O)OC)[C@@H](C)OC)cc3)N2c2cc(F)c(N3CC[Si](C)(C)CC3)c(F)c2)cc1)[C@@H](C)OC", 454]
]}

---

Test: Half life in dog at 5 mg/kg, po by UPLC-MS/MS analysis
Format: ADME, organism-based, Canis lupus familiaris
Conditions: in vivo

{"columns": ["smiles_entry", "half-life, h"],
 "data": [
  ["COC(=O)N[C@H](C(=O)N1CCC[C@H]1C(=O)Nc1ccc([C@@H]2CC[C@@H](c3ccc(NC(=O)[C@@H]4CCCN4C(=O)[C@@H](NC(=O)OC)[C@@H](C)OC)cc3)N2c2cc(F)c(N3CC[Si](C)(C)CC3)c(F)c2)cc1)[C@@H](C)OC", 21.2]
]}
